- TARGET_ENTITY: T1, DegS H198P/P229A (E. coli, UniProt P0AEE3 27-355, H198P | P229A)
- T1 sequence (looked up): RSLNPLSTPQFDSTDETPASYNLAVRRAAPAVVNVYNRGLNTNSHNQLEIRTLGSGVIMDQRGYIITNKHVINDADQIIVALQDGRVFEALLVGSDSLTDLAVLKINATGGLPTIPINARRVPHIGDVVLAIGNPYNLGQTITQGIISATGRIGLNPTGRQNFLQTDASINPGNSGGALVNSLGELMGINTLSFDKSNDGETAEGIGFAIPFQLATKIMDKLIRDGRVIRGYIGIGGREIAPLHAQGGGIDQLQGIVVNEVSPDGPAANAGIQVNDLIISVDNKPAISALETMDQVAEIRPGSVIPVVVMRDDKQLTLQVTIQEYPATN
- EXPERIMENTAL_PROTOCOL: fluorescence polarisation
Where no end group is shown, it is not given here. fluorescein = fluorescein, a fluorescent label on the peptide N-terminus
PROPERTY: Kd (nM)
# output: bare number, implied unit nM

Record fluorescein-DNRDGNVYYF [fluorescent OMP peptide fluorescein-DNRDGNVYYF] . Reported Kd: 2000
